Tested on: SF-295 CNS
assay-notes: NCI-60 one-dose screen, 48 h
run-parameters: 10 µM unless noted
Compounds without any hit were thinned out: in the full panel of roughly 83,000, 20% have a hit. Calls of active or inactive are those of the source. How the source made its calls: active means growth percent below 10; inactive means the rest.
Outcome codes: active, inactive

# chem-smiles, assay-target, assigned-class
rows = [
    ("CNC(=O)c1cc(Oc2ccc3c(c2)sc2nc(-c4ccc(NC(=O)[C@@H](NC(=O)OC)C(C)C)cc4)cn23)ccn1", "SF-295 CNS", "inactive"),
    ("Cc1c2ccccc2nc2cc3c(cc12)[C@H]1CC[C@]2(C)C(=O)CC[C@H]2[C@@H]1CC3", "SF-295 CNS", "inactive"),
    ("Nc1ccc(-c2ccncc2)cc1NC(=O)N1CCCC1", "SF-295 CNS", "inactive"),
    ("O=C1Nc2ccccc2/C1=N/N1C(=O)CN(CCCl)C1=O", "SF-295 CNS", "inactive"),
    ("N#Cc1c(-c2ccc(Cl)cc2)nc(NN=Cc2ccc[nH]2)nc1N1CCOCC1", "SF-295 CNS", "inactive"),
    ("COc1cc(-c2nccc3[nH]c(-c4cccc5[nH]ccc45)nc23)cc(OC)c1OC", "SF-295 CNS", "inactive"),
    ("N=C(N)c1ccc(-c2ccc(-c3cc(Cl)cc(Cl)c3)s2)s1", "SF-295 CNS", "active"),
    ("N#Cc1c(-c2cccc(Cl)c2)cc(-c2cccnc2)[nH]c1=O", "SF-295 CNS", "inactive"),
    ("CCN1C2CCC1/C(=C\\c1ccccc1)C(=O)/C2=C/c1ccccc1", "SF-295 CNS", "inactive"),
    ("CCOC(=O)c1ccc[nH]1", "SF-295 CNS", "inactive"),
]

---

Tested on: CCRF-CEM leukemia
assay-notes: NCI-60 one-dose screen, 48 h (100 = growth as untreated, 0 = no growth, -100 = all killed)
run-parameters: 10 µM unless noted
Compounds without any hit were thinned out: in the full panel of roughly 83,000, 20% have a hit.
reported-metric: growth (%)

# molecule, recorded-result
records = [
    ("COC12C=C/C(=C(/C(=O)OCc3csc(SC)n3)C(=O)CCCCCCCCC3(OC)C=C/C(=C(/C(=O)OCc4cnc(SC)s4)C(=O)CCCCCCCC1)O3)O2 (centres undefined)", 14.6),
    ("CCOC(=O)c1ccc[nH]1", 92.1),
    ("O=S(=O)(NCCNc1nccc(-c2c(-c3ccc(F)c(O)c3)nc3sccn23)n1)c1ccc(Cl)cc1", 14.2),
    ("C/C=C1/CN(CCCCC)CC[C@H]1C(=O)c1cc2ccccc2[nH]1", 96.8),
    ("CCSc1ccnc(N)n1", 97.3),
    ("COc1ccc2c(c1)c(-c1nc(-c3ccc4ccccc4c3)cs1)cn2C", 88.7),
    ("Cc1ccc(Cc2cnc(NC(=O)/C=C/c3ccc(C)o3)s2)cc1", 27.8),
    ("N[C@@H]1CCC[C@H]1NCCCCN1C(=O)c2cccc3cc([N+](=O)[O-])cc(c23)C1=O", 1.99),
    ("C[C@H](c1nc2ccc(C#N)cc2[nH]1)[C@H]1CC[C@H]2[C@@H]3CCC4=CC(=O)CC[C@]4(C)[C@H]3CC[C@]12C", 46.5),
]

---

Test system: T-47D breast
assay-notes: NCI-60 one-dose screen, 48 h
run-parameters: 10 µM unless noted
About 83,000 compounds went through this panel and 20% of them were active in at least one assay; those are over-represented in the sample as a whole. Calls of active or inactive are those of the source. The calls were made as follows: active = growth percent below 10; inactive = the rest.
Outcome codes: label 1 for active, label 0 for inactive

# compound, assigned-class
records = [
    ("CC1SC(c2ccccc2O)N(NC(=O)CCC(=O)c2nc3ncccc3[nH]2)C1=O (centres undefined)", "label 0"),
    ("C1CCC(N2CN3c4nonc4N4CN(C5CCCCC5)CN5c6nonc6N(C2)C3C45)CC1 (centres undefined)", "label 0"),
    ("Cn1cc(-c2csc(-c3cn(C)c4ccccc34)n2)c2cnccc21", "label 0"),
    ("C#Cc1cccc(NC(=O)C2CCCCN2C(=O)CCl)c1 (centres undefined)", "label 1"),
    ("COc1ccc2c(c1)CC[C@@H]1[C@@H]2CC[C@]2(C)C3C(=CC(COC(C)=O)C4C(=O)N(c5ccc(Cl)cc5)C(=O)C43)C[C@@H]12 (some centres undefined)", "label 0"),
    ("O=C(c1c[nH]c2ccccc12)c1n[nH]c(=S)n1-c1ccc([N+](=O)[O-])cc1", "label 0"),
    ("CC1(C)CC[C@]2(CO)CC[C@]3(C)[C@](O)([C@H](O)C[C@@H]4[C@@]5(C)CCCNC(C)(C)[C@@H]5CC[C@]43C)[C@@H]2C1", "label 0"),
    ("CC[C@@H](C(=O)[C@@H](C)[C@@H](O)[C@H](C)[C@@H]1O[C@@H]([C@@H](CC)C(=O)ONC(=O)c2ccccc2O)CC[C@@H]1C)C1O[C@]2(C=CC(=O)[C@]3(CC[C@@](C)([C@H]4CC[C@](O)(CC)[C@H](C)O4)O3)O2)[C@H](C)C[C@@H]1C (some centres undefined)", "label 0"),
    ("Cc1ccc(-c2csc(NC(=O)CSc3nc(N)cc(N)n3)n2)cc1", "label 0"),
]

---

Test system: OVCAR-3 ovarian
assay-notes: NCI-60 one-dose screen, 48 h (100 = growth as untreated, 0 = no growth, -100 = all killed)
run-parameters: 10 µM unless noted
This is part of a sample that, as a whole, favours compounds with a hit. Of some 83,000 tested, about 20% had one in any assay.

# chem-smiles, unit-info, growth
measured = [
    ("C#CCOc1cccc(Nc2ncnc3cc(NC(=O)CCl)ccc23)c1", "%", -76.7),
    ("Fc1cccc(CNc2c3ccccc3nc3ccccc23)c1", "%", 67),
    ("COc1ccc(C=Nc2c(C(=O)Nc3cccc(Cl)c3C)sc3nc(C)c(C(=O)/C=C/c4ccc(OC)cc4)cc23)cc1", "%", 4.94),
    ("NCCCNc1nc2ccccc2c2c(=O)c3cc(Cl)ccc3sc12", "%", -60),
    ("COc1ccc(-c2nc3c(c(-c4ccc(Cl)cc4)nn3-c3ccccc3)c(-c3ccccc3)c2C#N)cc1", "%", 111),
]

---

System: NCI-H23 lung
assay-notes: NCI-60 one-dose screen, 48 h (100 = growth as untreated, 0 = no growth, -100 = all killed)
run-parameters: 10 µM unless noted
Description: Growth inhibition of the NCI-H23 human Non-Small Cell Lung tumor cell line is measured as a screen for anti-cancer activity. Cells are grown in 96 well plates and exposed to the test compound for 48 hours. Compounds are tested at a single concentration, which is 10^-5 M for most compounds. The reported endpoint is percent growth (GI% or GIPRCNT), where numbers from 0 - 100% represent growth inhibition, and numbers from -100% - 0 represent cell death. […]
Compounds without any hit were thinned out: in the full panel of roughly 83,000, 20% have a hit. Active and inactive are the calls of the source. How the source made its calls: active means growth percent below 10; inactive means the rest.
List of growth values.

# compound, growth
measured = [
    ("Cc1cccc(N2C(=O)/C(=C/C(Cl)=C/c3ccc([N+](=O)[O-])cc3)SC2=S)c1C", "10.4% (inactive)"),
    ("CN(C)c1ccc(CNCCO)cc1", "107% (inactive)"),
    ("CC1(/C=C/c2ccc(-c3ccccc3)cc2)CCn2cnc3ncnc(c32)N1O (centres undefined)", "13% (inactive)"),
    ("c1cc(OCCN2CCCC2)ccc1CNc1ccc2nc(CCC3CCCCC3)[nH]c2c1", "81.9% (inactive)"),
    ("Nc1nc(C(=O)N/N=C/c2ccc(F)cc2)nn1-c1ccc(S(N)(=O)=O)cc1", "101% (inactive)"),
    ("O=C(CN1C(=O)S/C(=C\\C(Cl)=C\\c2ccccc2)C1=O)NC1CCS(=O)(=O)C1 (centres undefined)", "74.3% (inactive)"),
    ("CS(=O)(=O)Nc1cc(-c2ccc3ncnc(Nc4ccc5c(cnn5Cc5ccccc5F)c4)c3c2)cnc1Cl", "41.8% (inactive)"),
    ("COc1ccc(-c2cc(-c3cc(OC)ccc3OC)nc(SCC(C)=O)c2C#N)cc1", "76.1% (inactive)"),
    ("Cc1ccc2c(c1)sc1nc(-c3c[nH]c4ccccc34)c(Nc3ccccc3)n12", "98.4% (inactive)"),
    ("Nc1cccc(-c2ccc(COc3ccc(CC4SC(=O)NC4=O)cc3)cc2)c1 (centres undefined)", "70.5% (inactive)"),
    ("CC(C)NS(=O)(=O)/N=C1\\NC(=O)NC1=C(Cl)Cl", "101% (inactive)"),
    ("CN1CC(c2ccc(Br)cc2)C(C(=O)c2ccc(Br)cc2)C12C(=O)Nc1ccccc12 (centres undefined)", "67.7% (inactive)"),
    ("C=C(C)[C@@H]1CC[C@]2(C(=O)N3CCN(C)CC3)CC[C@]3(C)[C@H](CC[C@@H]4[C@@](C)(CCC(=O)O)[C@H](C(=C)C)CC[C@]43C)[C@@H]12", "95.4% (inactive)"),
    ("COc1cc([C@@H](CCO)C[C@H](C)c2ccc3ccccc3c2)cc(OC)c1OC", "54.6% (inactive)"),
    ("CNC(=O)c1cc(Oc2ccc3c(c2)sc2nc(-c4ccc(NC(=O)[C@@H](NC(=O)OC)C(C)C)cc4)cn23)ccn1", "77.6% (inactive)"),
    ("CCOC(=O)C1=C(c2ccccc2)N=C2N(c3ccccc3)N=C(C(C)=O)N2C1c1ccc(F)cc1 (centres undefined)", "105% (inactive)"),
    ("NS(=O)(=O)c1ccc(C(=O)N=Nc2c(O)[nH]c3ccc(Cl)cc23)cc1", "98.3% (inactive)"),
    ("Cc1cc(=O)oc2cc(Oc3nc(Br)cn4c(Br)cnc34)ccc12", "63.9% (inactive)"),
    ("COc1ccc(C(=O)/C=C/c2ccccc2)cc1S(N)(=O)=O", "79.6% (inactive)"),
]

Hello, the source for this data is PubChem BioAssay (NCI), in case you need it.
